The reported measurements were obtained from ChEMBL document CHEMBL1201862.

GI50 values by entry
# Tested on: HCC 2998
# Method: NCI tumour cell line growth inhibition, 48 h
Calls of active or inactive are those of the source. Cut-off read from the data, not from the text of the source: active = GI50 up to about 1.1 µM and inactive = higher.

Known GI50 results, listed for orientation:
CC1(C)NC(=O)N(CCCCCCN2C(=O)NC(C)(C)C2=O)C1=O    > 100 µM (inactive)
CCOC(=O)CC(NC(=O)c1nc[nH]c1[N+](=O)[O-])C(=O)OCC (configuration not stated)    30.5 µM (inactive)
COc1ccc(/C=N/N=C(\N)NO)c(OC)c1C    7.08 µM (inactive)
COc1cc2cc3c4c(cc(OC)c(OC)c4c2cc1OC)CCN3C(=O)CCCC(=O)O    > 100 µM (inactive)

Dear colleague, I am looking for the recorded GI50 of the following compound: COC(OC)C(O)C1OC=CC1n1cnc2c(N)ncnc21 (configuration not stated)
> 100 µM (inactive)

Dear colleague, I am looking for the recorded GI50 of the following compound: CCCCC(C(=O)C(=O)Nc1ccc(C)cc1C)C(=O)C(C)C (configuration not stated)
> 100 µM (inactive)

Dear colleague, I am looking for the recorded GI50 of the following compound: NCCOCCOCC(=O)O
> 100 µM (inactive)

Dear colleague, I am looking for the recorded GI50 of the following compound: COC(O)C12OC3CO[Si](C(C)C)(C(C)C)O[Si](C(C)C)(C(C)C)OC3C1Oc1nc(=O)ccn12 (configuration not stated)
3.94 µM (inactive)

Dear colleague, I am looking for the recorded GI50 of the following compound: C[C@]12CCC(=O)C=C1CC[C@@H]1[C@@H]2CC[C@]2(C)C(=O)/C(=C/c3ccncc3)C[C@@H]12
16.7 µM (inactive)
